Consider the following compounds; for each one, report its growth at 10 µM.
- System: HT-29
- procedure-summary: Cytotoxicity against human HT-29 cells assessed as cell growth at 10 uM after 48 hrs by sulforhodamine B assay relative to control
- Format: functional
- experimental-setup: HT-29, 48 h, read-out: Activity
# unit: % | format: bare number

Incoming: Would you mind telling me what growth at 10 µM value was observed for "COc1cc(-c2cc(/C=C/C(=O)c3ccc(F)c(F)c3)[nH]n2)cc(OC)c1OC" ?
Outgoing: -24

Incoming: Same read-out for "COc1ccc(-c2cc(/C=C/C(=O)c3cc(OC)c(OC)c(OC)c3)[nH]n2)cc1OC" ?
Outgoing: -87

Incoming: Queued: "COc1ccc(C(=O)/C=C/c2cc(-c3ccc(OC)c(OC)c3)n[nH]2)cc1OC"
Outgoing: -28

Incoming: Try the compound "COc1cc2c(cc1OC)C(=O)/C(=C/c1cc(-c3ccc4c(c3)OCO4)n[nH]1)C2"
Outgoing: -77

###

- System: UACC-62
- procedure-summary: Cytotoxicity against human UACC62 cells assessed as growth inhibition after 48 hrs by sulforhodamine B assay
- Assay type: functional
- experimental-setup: UACC-62, 48 h
Would you mind telling me the reported LC50 of each entry?
Give just the numeric value; µM need not be written.

Incoming: Give the measured LC50 of "COc1cc2c(cc1OC)C(=O)/C(=C/c1cc(-c3ccc4c(c3)OCO4)n[nH]1)C2" .
Outgoing: 5.66

Incoming: Follow-up entry: "COc1ccc(-c2cc(/C=C/C(=O)c3ccc(N)cc3)[nH]n2)cc1OC"
Outgoing: 39.6

Incoming: Same thing, different molecule: "COc1ccc(-c2cc(/C=C/C(=O)c3ccc(OC)c(OC)c3)[nH]n2)cc1"
Outgoing: 6.79

Incoming: Could you do the same for "COc1ccc(C(=O)/C=C/c2cc(-c3ccc4c(c3)OCO4)n[nH]2)cc1OC" , please?
Outgoing: 40.9

Incoming: Record: "COc1ccc(C(=O)/C=C/c2cc(-c3cc(OC)c(OC)c(OC)c3)n[nH]2)cc1OC"
Outgoing: 5.98

###

- Tested on: DU-145
- procedure-summary: Cytotoxicity against human DU145 cells assessed as cell growth at 0.01 uM after 48 hrs by sulforhodamine B assay relative to control
- Type: functional
- experimental-setup: DU-145, 48 h, read-out: Activity
Please respond with reported growth at 0.01 µM for every item in the list.
Express it in %; write the number only.

Incoming: Which growth at 0.01 µM value is on record for "COc1ccc(C(=O)/C=C/c2cc(-c3ccc4c(c3)OCO4)n[nH]2)cc1OC" ?
Outgoing: 101

Incoming: Can you check "COc1cc2c(cc1OC)C(=O)/C(=C/c1cc(-c3ccc4c(c3)OCO4)n[nH]1)C2" next?
Outgoing: 102

Incoming: Would you mind doing "COc1ccc(-c2cc(/C=C/C(=O)c3ccc(N)cc3)[nH]n2)cc1OC" as well?
Outgoing: 109

Incoming: Please answer likewise for "COc1ccc(C(=O)/C=C/c2cc(-c3cc(OC)c(OC)c(OC)c3)n[nH]2)cc1OC"
Outgoing: 104

Incoming: Then "COc1cc(-c2cc(/C=C/C(=O)c3ccc(N)cc3)[nH]n2)cc(OC)c1OC" ?
Outgoing: 107

###

- System: BT-549
- procedure-summary: Cytotoxicity against human BT549 cells assessed as growth inhibition after 48 hrs by sulforhodamine B assay
- Assay type: functional
- experimental-setup: BT-549, 48 h
readout-name: TGI (µM)
// return numeric value only (unit: µM, not printed)

Incoming: If you can, please state the reported TGI value of "COc1ccc(-c2cc(/C=C/C(=O)c3ccc(N)cc3)[nH]n2)cc1" .
Outgoing: 4.78

Incoming: Would you kindly repeat that for "COc1cc(-c2cc(/C=C/C(=O)c3ccc(N)cc3)[nH]n2)cc(OC)c1OC" ?
Outgoing: 2.82

Incoming: Lookup "COc1ccc(C(=O)/C=C/c2cc(-c3cc(OC)c(OC)c(OC)c3)n[nH]2)cc1OC"
Outgoing: 2.9

Incoming: Try "COc1cc(-c2cc(/C=C/C(=O)c3ccc(Cl)c(Cl)c3)[nH]n2)cc(OC)c1OC" next.
Outgoing: 29.3

Incoming: Entry "COc1ccc(-c2cc(/C=C/C(=O)c3ccc(OC)c(OC)c3)[nH]n2)cc1" please
Outgoing: 3.53

###

- Test system: BT-549
- procedure-summary: Cytotoxicity against human BT549 cells assessed as growth inhibition after 48 hrs by sulforhodamine B assay
- Type: functional
- experimental-setup: BT-549, 48 h
readout-name: LC50 (concentration killing 50% of cells)

Incoming: Param item = "COc1ccc(-c2cc(/C=C/C(=O)c3ccc(N)cc3)[nH]n2)cc1OC" ; retrieve measured LC50 (concentration killing 50% of cells).
Outgoing: 5.77 µM

Incoming: Same for "COc1cc(-c2cc(/C=C/C(=O)c3ccc(Cl)c(Cl)c3)[nH]n2)cc(OC)c1OC"
Outgoing: 92.6 µM

Incoming: Would you kindly repeat that for "COc1cc(-c2cc(/C=C/C(=O)c3ccc4c(c3)OCO4)[nH]n2)cc(OC)c1OC" ?
Outgoing: > 100 µM

Incoming: Again, but for "COc1ccc(-c2cc(/C=C/C(=O)c3ccc(OC)c(OC)c3)[nH]n2)cc1"
Outgoing: 7.4 µM

Incoming: For "COc1cc(-c2cc(/C=C/C(=O)c3ccc(F)c(F)c3)[nH]n2)cc(OC)c1OC" then?
Outgoing: 79.5 µM

Incoming: Param item: "COc1ccc(-c2cc(/C=C/C(=O)c3cc(OC)c(OC)c(OC)c3)[nH]n2)cc1OC"
Outgoing: 6.32 µM

Incoming: "COc1cc2c(cc1OC)C(=O)/C(=C/c1cc(-c3ccc4c(c3)OCO4)n[nH]1)C2" , same question.
Outgoing: 5.71 µM

Incoming: // next record "COc1cc(C(=O)/C=C/c2cc(-c3cc(OC)c(OC)c(OC)c3)n[nH]2)cc(OC)c1OC"
Outgoing: 5.6 µM

###

- Tested on: RPMI-8226
- procedure-summary: Cytotoxicity against human RPMI8226 cells assessed as cell growth at 10 uM after 48 hrs by sulforhodamine B assay relative to control
- Assay type: functional
- experimental-setup: RPMI-8226, 48 h, read-out: Activity
Would you mind telling me the reported growth at 10 µM of each entry?
Report only the number, with the unit % understood.

Incoming: So what's the measured growth at 10 µM for this one? "COc1cc(-c2cc(/C=C/C(=O)c3ccc(Cl)c(Cl)c3)[nH]n2)cc(OC)c1OC"
Outgoing: -7

Incoming: What about this compound? "COc1cc2c(cc1OC)C(=O)/C(=C/c1cc(-c3ccc4c(c3)OCO4)n[nH]1)C2"
Outgoing: -59

Incoming: Likewise for "COc1ccc(C(=O)/C=C/c2cc(-c3cc(OC)c(OC)c(OC)c3)n[nH]2)cc1" ?
Outgoing: -41

Incoming: Likewise for "COc1ccc(C(=O)/C=C/c2cc(-c3ccc(OC)c(OC)c3)n[nH]2)cc1OC" ?
Outgoing: -30

###

- Tested on: A498
- procedure-summary: Cytotoxicity against human A498 cells assessed as cell growth at 10 uM after 48 hrs by sulforhodamine B assay relative to control
- Type: functional
- experimental-setup: A498, 48 h, read-out: Activity
Please respond with reported growth at 10 µM for every item in the list.
Provide only the numeric value, understood in %.

Incoming: What growth at 10 µM appears in the records for this compound with A498? "COc1ccc(-c2cc(/C=C/C(=O)c3cc(OC)c(OC)c(OC)c3)[nH]n2)cc1OC"
Outgoing: -28

Incoming: Queued: "COc1ccc(C(=O)/C=C/c2cc(-c3ccc4c(c3)OCO4)n[nH]2)cc1OC"
Outgoing: -43

Incoming: Another compound: "COc1ccc(-c2cc(/C=C/C(=O)c3ccc(N)cc3)[nH]n2)cc1"
Outgoing: -39

Incoming: What do we get for "COc1cc(C(=O)/C=C/c2cc(-c3cc(OC)c(OC)c(OC)c3)n[nH]2)cc(OC)c1OC" ?
Outgoing: -64

###

Assign growth at 0.1 µM to each entry below.
- System: A549
- procedure-summary: Cytotoxicity against human A549/ATCC cells assessed as cell growth at 0.1 uM after 48 hrs by sulforhodamine B assay relative to control
- Type: functional
- experimental-setup: A549, 48 h, read-out: Activity
Expressed in %, but write only the number.

Incoming: Request - read-out growth at 0.1 µM | tested on A549 | compound "COc1cc(-c2cc(/C=C/C(=O)c3ccc(Cl)c(Cl)c3)[nH]n2)cc(OC)c1OC"
Outgoing: 99

Incoming: Next up: "COc1ccc(C(=O)/C=C/c2cc(-c3cc(OC)c(OC)c(OC)c3)n[nH]2)cc1OC"
Outgoing: 98

Incoming: Moving on to "COc1cc(C(=O)/C=C/c2cc(-c3cc(OC)c(OC)c(OC)c3)n[nH]2)cc(OC)c1OC"
Outgoing: 94

Incoming: Check "COc1ccc(C(=O)/C=C/c2cc(-c3ccc4c(c3)OCO4)n[nH]2)cc1OC" too.
Outgoing: 96

Incoming: Record: "COc1cc(-c2cc(/C=C/C(=O)c3ccc4c(c3)OCO4)[nH]n2)cc(OC)c1OC"
Outgoing: 98

Incoming: Next entry: "COc1cc(-c2cc(/C=C/C(=O)c3ccc(N)cc3)[nH]n2)cc(OC)c1OC"
Outgoing: 94

Incoming: Field entry: "COc1cc(-c2cc(/C=C/C(=O)c3ccc(F)c(F)c3)[nH]n2)cc(OC)c1OC"
Outgoing: 98
